target: unmodified H3 peptide (UniProt P59226); experiment: ITC; FIG. 3A
result.type: pKd
Reminder that pKd means the negative base-10 logarithm of the concentration expressed in mol/L.

Ask: Look up pKd for this substance: SHH1 SAWADEE domain (residues 125-258) (from UniProt Q9XI47 125-258)
Result: 4.46
